Provenance of the data: the emibetuzumab library of Makowski et al. (2022)

B1: VH:VL chains; a variant is named by its letters at X, in order (parent)
chain 1: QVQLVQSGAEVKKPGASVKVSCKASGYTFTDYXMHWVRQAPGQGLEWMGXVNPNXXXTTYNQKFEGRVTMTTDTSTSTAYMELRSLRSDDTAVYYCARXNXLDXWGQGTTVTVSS
chain 2: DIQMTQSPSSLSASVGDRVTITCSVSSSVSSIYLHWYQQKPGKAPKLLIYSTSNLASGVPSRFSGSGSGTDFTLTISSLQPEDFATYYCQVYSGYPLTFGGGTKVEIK

variants of: B1; assay: yeast display scFab, FACS + sequencing
VALUE_TYPE: non-specific binding call

// below: answered variants
YATEGVWV :: binds
VRRANFLD :: binds
VEGAASWV :: no binding
YRGKAAGD :: binds
SGGGNDLA chain 1 R87K :: no binding

// non-specific binding call lookup, key: YRTRGALS binds
